Origin of the recorded values: paper PMC11472053

Biological target: T1, NACC1 BEN D462A (human, UniProt Q96RE7 341-477, D462A)
T1 sequence: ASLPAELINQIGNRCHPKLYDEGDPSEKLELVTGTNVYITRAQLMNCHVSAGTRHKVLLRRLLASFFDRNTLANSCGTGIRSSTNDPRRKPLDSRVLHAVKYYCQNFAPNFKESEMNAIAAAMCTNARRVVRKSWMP
Assay: ITC; ITC: 20 mM Tris pH 7.5, 200 mM NaCl, 2 mM beta-mercaptoethanol, 20 C; EMSA: 20 mM Tris pH 7.0, 200 mM NaCl, 2 mM DTT, 4 C, 1.2% agarose in TAE
Settings: protein: recombinant; tags: His-SUMO or His-MBP, cleaved; blunt, self-complementary
quantity.name: Kd

binder | reported.value
12-CATG (dsDNA) DNA 1: ATTACATGTAAT DNA 2: ATTACATGTAAT | 4.6 µM
